Documented log10 Kd across a set of binders
experimental_system: T1, EsCas13d, nuclease-dead (Eubacterium siraeum, UniProt B0MS50, R295A;H300A;R849A;H854A)
T1 sequence: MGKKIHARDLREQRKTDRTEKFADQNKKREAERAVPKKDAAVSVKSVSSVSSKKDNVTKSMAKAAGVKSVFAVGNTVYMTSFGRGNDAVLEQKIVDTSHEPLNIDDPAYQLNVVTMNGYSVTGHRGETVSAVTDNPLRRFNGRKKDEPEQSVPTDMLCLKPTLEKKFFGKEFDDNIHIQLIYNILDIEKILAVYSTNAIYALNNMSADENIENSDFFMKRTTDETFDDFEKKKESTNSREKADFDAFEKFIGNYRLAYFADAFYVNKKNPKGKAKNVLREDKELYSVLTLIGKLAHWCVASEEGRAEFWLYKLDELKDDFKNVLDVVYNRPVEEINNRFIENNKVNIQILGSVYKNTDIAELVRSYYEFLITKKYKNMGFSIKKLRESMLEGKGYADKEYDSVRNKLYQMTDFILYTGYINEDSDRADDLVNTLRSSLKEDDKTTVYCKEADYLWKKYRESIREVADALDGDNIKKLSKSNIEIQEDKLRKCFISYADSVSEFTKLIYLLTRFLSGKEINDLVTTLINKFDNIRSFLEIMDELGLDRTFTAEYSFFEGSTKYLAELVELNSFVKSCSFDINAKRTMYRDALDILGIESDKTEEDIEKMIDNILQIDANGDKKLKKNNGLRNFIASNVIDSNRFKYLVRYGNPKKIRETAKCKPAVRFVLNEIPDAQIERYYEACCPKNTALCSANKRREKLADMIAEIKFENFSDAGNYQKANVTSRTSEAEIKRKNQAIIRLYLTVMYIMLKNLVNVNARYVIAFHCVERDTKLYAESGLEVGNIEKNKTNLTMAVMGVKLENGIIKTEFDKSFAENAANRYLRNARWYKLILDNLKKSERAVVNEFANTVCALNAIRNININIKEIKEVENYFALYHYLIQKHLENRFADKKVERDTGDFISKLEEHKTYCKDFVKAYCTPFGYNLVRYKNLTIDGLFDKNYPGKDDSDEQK
procedure_text: crRNA (strand 1, pre-loaded); Mg2+; 40 mM Tris-HCl pH 7.5, 150 mM NaCl, 6 mM MgCl2, 1 mM DTT, 0.1% Tween-20, 0.2 mg/ml BSA; 25 C; 10 min per concentration, then washed
protocol_conditions: tags: His6-TwinStrep-SUMO cleaved; N-terminal SNAP kept (SNAP-Surface 488); label: 3' end held by stalled T7 RNA polymerase
The common logarithm of Kd in nM is what is listed.

Here are 3 binders together with their reported answers.
- binder: "target 3 insA 3' of 7,insC 3' of 5 (mixed) RNA 1: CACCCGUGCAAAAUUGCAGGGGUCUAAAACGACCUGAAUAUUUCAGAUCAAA RNA 2: GGGAAUGGAUCCACAUCUACGAAUUCGUUUUUGAUCUGAAAUAUUACACGGUCUGCAGAUCGGAAGAGCACACGU"
  log10 Kd: 1.45
- binder: "target 1 MT 5'PFS GCG 3'PFS AGA (mixed) RNA 1: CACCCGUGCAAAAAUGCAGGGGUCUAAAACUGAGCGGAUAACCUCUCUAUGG RNA 2: GGGAAUGGAUCCACAUCUACGAAUUCGCGCCAUAGAGAGGUUAUCCGCUCAAGAAGAUCGGAAGAGCACACGU"
  log10 Kd: 1.42
- binder: "target 2 MT 5'PFS UAG 3'PFS UAA (mixed) RNA 1: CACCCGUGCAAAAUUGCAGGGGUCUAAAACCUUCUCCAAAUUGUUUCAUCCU RNA 2: GGGAAUGGAUCCACAUCUACGAAUUCUAGAGGAUGAAACAAUUUGGAGAAGUAAAGAUCGGAAGAGCACACGU"
  log10 Kd: 0.45

The binder listed as target 1 MT 5'PFS GUA 3'PFS GAG (mixed) RNA 1: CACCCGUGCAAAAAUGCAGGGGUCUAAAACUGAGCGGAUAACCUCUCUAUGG RNA 2: GGGAAUGGAUCCACAUCUACGAAUUCGUACCAUAGAGAGGUUAUCCGCUCAGAGAGAUCGGAAGAGCACACGU shows log10 Kd equal to 1.21

Just so you know, measured log10 Kd for target 1 C2G,C21U (mixed) RNA 1: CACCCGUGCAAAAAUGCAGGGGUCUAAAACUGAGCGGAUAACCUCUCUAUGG RNA 2: GGGAAUGGAUCCACAUCUACGAAUUCGUACUAUAGAGAGGUUAUCCGCUGACCGAGAUCGGAAGAGCACACGU came out at 1.07

The reported log10 Kd of the binder target 1 insC 3' of 18,insA 3' of 13 (mixed) RNA 1: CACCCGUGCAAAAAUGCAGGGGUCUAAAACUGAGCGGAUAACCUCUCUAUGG RNA 2: GGGAAUGGAUCCACAUCUACGAAUUCGUACCAUACGAGAGAGUUAUCCGCUCACCGAGAUCGGAAGAGCACACGU was 1.39

Notebook: target 1 insG 3' of 9,insC 3' of 9 (mixed) RNA 1: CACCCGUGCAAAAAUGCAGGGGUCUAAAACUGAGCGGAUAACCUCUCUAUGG RNA 2: GGGAAUGGAUCCACAUCUACGAAUUCGUACCAUAGAGAGGUUAGCUCCGCUCACCGAGAUCGGAAGAGCACACGU , log10 Kd read as 1.24

According to the records, this binder target 1 G12A,A16G (mixed) RNA 1: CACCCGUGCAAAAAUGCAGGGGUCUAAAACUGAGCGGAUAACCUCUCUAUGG RNA 2: GGGAAUGGAUCCACAUCUACGAAUUCGUACCAUAGGGAGAUUAUCCGCUCACCGAGAUCGGAAGAGCACACGU displays log10 Kd of 1.68

Cited source: paper PMC10786891
